- System Name: human E3 ligase component cereblon (CRBN) (Homo sapiens, UniProt Q96SW2)
- Construct: host or cells: HEK293T
- Experiment Notes: Cereblon (CRBN) target engagement, NanoBRET TE Intracellular E3 Ligase Assay in transfected HEK-293T cells
- Protocol Conditions: read-out: CRBN Binding EC50
pEC50: −log10 of the molar value.
Observation Type: pEC50

// known answers, use as guide
INSERT INTO measurements (compound, observation_type, recorded_value) VALUES
  ('Cc1cnc(C2CN([C@H]3CCCC[C@H]3Oc3ccc4c(c3)CN(C3CCC(=O)NC3=O)C4=O)C2)nc1 (mixture of isomers)', 'pEC50', 7.77),
  ('Cc1nccc(C2CN(C3CCCCC3Oc3ccc4c(c3)CN(C3CCC(=O)NC3=O)C4=O)C2)n1 (centres unmarked)', 'pEC50', 7.36),
  ('O=C1CCC(N2Cc3cc(O[C@H]4CCCC[C@H]4N4CC(c5cncc(Cl)c5)C4)ccc3C2=O)C(=O)N1 (single isomer, unassigned) [Compound 114-B]', 'pEC50', 7.70),
  ('O=C1CCC(N2Cc3cc(O[C@@H]4CCCC[C@@H]4N4CC(c5ncncc5Cl)C4)ccc3C2=O)C(=O)N1 (single isomer, unassigned) [Compound 94-B]', 'pEC50', 7.54),
  ('O=C1CCC(N2Cc3cc(O[C@H]4CCCC[C@@H]4N4CC(c5ccc(Cl)cn5)C4)ccc3C2=O)C(=O)N1 (single isomer, unassigned) [Compound 100-B]', 'pEC50', 7.70);

a. CC1(C(=O)N2CCC(C3CN([C@H]4CCCC[C@@H]4Oc4ccc5c(c4)CN(C4CCC(=O)NC4=O)C5=O)C3)CC2)CCC1 (some centres unmarked)
b. O=C1CCC(N2Cc3cc(O[C@@H]4CCCC[C@@H]4N4CC(c5cc(Cl)ccn5)C4)ccc3C2=O)C(=O)N1 (mixture of isomers)
c. O=C1CCC(N2Cc3cc(O[C@@H]4CCCC[C@H]4N4CC(c5ccc(C(F)(F)F)nc5)C4)ccc3C2=O)C(=O)N1 (single isomer, unassigned) [Compound 124-B]
input: // sort entries: pEC50, high to low Answer by listing the labels in the order asked for.
output: a, b, c

---

- System Name: IKZF2 (Helios) (Homo sapiens)
- Construct: Leu-Asp junction (codons ctcgac before the linker); mScarlet (behind P2A) (C, cleaved yes); expressed in transfected cells
- Sequence (Q9UKS7 whole entry): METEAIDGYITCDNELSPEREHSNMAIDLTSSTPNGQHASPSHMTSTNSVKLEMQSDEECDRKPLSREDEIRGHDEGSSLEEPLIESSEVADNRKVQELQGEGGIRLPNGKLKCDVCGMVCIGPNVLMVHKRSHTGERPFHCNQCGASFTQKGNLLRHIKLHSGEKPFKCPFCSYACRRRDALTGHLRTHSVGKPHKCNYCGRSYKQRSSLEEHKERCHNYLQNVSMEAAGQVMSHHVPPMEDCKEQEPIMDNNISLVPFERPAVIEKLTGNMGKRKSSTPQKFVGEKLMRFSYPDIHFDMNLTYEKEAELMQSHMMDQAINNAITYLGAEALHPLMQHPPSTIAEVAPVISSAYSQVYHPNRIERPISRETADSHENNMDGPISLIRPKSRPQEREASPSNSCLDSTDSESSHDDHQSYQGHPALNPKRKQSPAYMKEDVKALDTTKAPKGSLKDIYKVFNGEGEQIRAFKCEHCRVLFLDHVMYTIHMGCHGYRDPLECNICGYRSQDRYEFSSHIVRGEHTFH
- Sequence (Q96SW2 whole entry, further chain): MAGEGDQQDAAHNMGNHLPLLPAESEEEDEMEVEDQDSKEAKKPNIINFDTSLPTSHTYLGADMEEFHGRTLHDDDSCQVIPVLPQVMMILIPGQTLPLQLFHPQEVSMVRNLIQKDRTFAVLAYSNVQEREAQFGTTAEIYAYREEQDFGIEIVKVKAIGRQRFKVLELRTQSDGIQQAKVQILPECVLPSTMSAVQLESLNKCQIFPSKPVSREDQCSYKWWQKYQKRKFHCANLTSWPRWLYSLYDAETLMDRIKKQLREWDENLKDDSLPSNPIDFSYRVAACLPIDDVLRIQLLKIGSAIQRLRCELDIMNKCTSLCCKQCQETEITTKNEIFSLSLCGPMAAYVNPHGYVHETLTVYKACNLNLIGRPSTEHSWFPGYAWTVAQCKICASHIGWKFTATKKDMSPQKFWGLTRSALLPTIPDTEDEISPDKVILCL
- Sequence (Q16531 whole entry partner): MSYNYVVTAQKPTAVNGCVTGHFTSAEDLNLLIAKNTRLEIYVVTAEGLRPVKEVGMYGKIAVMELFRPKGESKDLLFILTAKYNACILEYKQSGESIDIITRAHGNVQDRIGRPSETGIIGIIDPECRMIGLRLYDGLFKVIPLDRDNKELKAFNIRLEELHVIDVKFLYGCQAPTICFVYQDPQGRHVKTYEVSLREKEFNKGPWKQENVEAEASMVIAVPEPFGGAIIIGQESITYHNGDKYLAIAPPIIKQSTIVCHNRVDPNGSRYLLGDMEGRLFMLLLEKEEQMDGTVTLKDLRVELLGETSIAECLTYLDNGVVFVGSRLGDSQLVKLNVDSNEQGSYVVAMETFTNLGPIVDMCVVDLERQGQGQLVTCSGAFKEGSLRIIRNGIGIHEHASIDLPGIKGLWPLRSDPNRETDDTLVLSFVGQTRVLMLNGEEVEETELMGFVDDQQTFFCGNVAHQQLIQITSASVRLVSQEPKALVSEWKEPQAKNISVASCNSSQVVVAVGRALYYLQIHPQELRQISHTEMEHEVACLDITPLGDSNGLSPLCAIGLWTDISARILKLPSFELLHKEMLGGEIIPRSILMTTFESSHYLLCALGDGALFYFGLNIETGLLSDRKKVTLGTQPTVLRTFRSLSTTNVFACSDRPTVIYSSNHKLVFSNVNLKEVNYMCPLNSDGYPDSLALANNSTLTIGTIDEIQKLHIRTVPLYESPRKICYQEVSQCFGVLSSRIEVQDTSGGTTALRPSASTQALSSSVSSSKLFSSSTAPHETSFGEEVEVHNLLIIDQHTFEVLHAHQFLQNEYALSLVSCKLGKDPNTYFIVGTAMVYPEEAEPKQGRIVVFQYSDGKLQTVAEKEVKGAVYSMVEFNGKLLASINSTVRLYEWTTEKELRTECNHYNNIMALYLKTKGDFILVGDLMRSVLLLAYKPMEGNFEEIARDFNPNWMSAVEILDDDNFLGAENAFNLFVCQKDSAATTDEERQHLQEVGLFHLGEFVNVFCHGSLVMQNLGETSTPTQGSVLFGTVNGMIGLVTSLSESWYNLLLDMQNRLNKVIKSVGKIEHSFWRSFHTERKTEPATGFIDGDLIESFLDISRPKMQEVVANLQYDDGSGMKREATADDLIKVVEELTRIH
- Experiment Notes: IKZF2 reporter degradation assay (HEK 293T IKZF2-mNeonGreen reporter cell line)
- Assay type: cell-based
- Protocol Conditions: HEK 293T IKZF2-mNeonGreen reporter, 24 hours incubation
Observation Type: DC50 (nM)

INSERT INTO assay_data (compound, system_name, observation_type, recorded_value) VALUES
  ('O=C1CCC(N2Cc3cc(O[C@H]4CCCC[C@@H]4N4CC(C5CCN(C(=O)CC6CC6)CC5)C4)ccc3C2=O)C(=O)N1 (stereo partly shown) [Compound 34-A]', 'IKZF2 (Helios) (Homo sapiens)', 'DC50', 2),
  ('N#CC1(C(=O)N2CCC(C3CN([C@H]4CCCC[C@@H]4Oc4ccc5c(c4)CN(C4CCC(=O)NC4=O)C5=O)C3)CC2)CC1 (stereo partly shown) [Compound 27-A]', 'IKZF2 (Helios) (Homo sapiens)', 'DC50', 8),
  ('CC1(C(=O)N2CCC(C3CN([C@H]4CCCC[C@@H]4Oc4ccc5c(c4)CN(C4CCC(=O)NC4=O)C5=O)C3)CC2)CC1 (stereo partly shown) [Compound 31-A]', 'IKZF2 (Helios) (Homo sapiens)', 'DC50', 0.1),
  ('CC1CC1C(=O)N1CCC(C2CN([C@H]3CCCC[C@@H]3Oc3ccc4c(c3)CN(C3CCC(=O)NC3=O)C4=O)C2)CC1 (stereo partly shown) [Compound 35-A]', 'IKZF2 (Helios) (Homo sapiens)', 'DC50', 1),
  ('O=C1CCC(N2Cc3cc(O[C@@H]4CCCC[C@@H]4N4CC(c5ccncc5F)C4)ccc3C2=O)C(=O)N1 (mixture of isomers) [Compound 153-B]', 'IKZF2 (Helios) (Homo sapiens)', 'DC50', 16),
  ('Cc1cnc(C2CN([C@H]3CCCC3Oc3ccc4c(c3)CN(C3CCC(=O)NC3=O)C4=O)C2)o1 (mixture of isomers) [Compound 161-B]', 'IKZF2 (Helios) (Homo sapiens)', 'DC50', 138),
  ('O=C1CCC(N2Cc3cc(OC4CCCCC4N4CC(c5ccc6cccnc6c5)C4)ccc3C2=O)C(=O)N1 (stereo not shown) [Compound 193-B]', 'IKZF2 (Helios) (Homo sapiens)', 'DC50', 6),
  ('COc1cc(C2CN(C3CCCC3Oc3ccc4c(c3)CN(C3CCC(=O)NC3=O)C4=O)C2)ccn1 (stereo not shown) [Compound 170-B]', 'IKZF2 (Helios) (Homo sapiens)', 'DC50', 66);

I. O=C1CCC(N2Cc3cc(O[C@H]4CCCC[C@@H]4N4CC(c5ncc(C(F)(F)F)cn5)C4)ccc3C2=O)C(=O)N1 (single isomer, unassigned) [Compound 123-B]
II. O=C1CCC(N2Cc3cc(O[C@@H]4CCCC[C@@H]4N4CC(c5ccc6ccccc6n5)C4)ccc3C2=O)C(=O)N1 (mixture of isomers) [Compound 146-B]
input: When I and II are compared, which has the higher number for DC50? When you have decided, please share the label of that item.
output: II
